Target: Recombinant human PDK1 enzyme (aa 52-556) (Homo sapiens (Human), UniProt O15530)
Sequence (O15530 52-556): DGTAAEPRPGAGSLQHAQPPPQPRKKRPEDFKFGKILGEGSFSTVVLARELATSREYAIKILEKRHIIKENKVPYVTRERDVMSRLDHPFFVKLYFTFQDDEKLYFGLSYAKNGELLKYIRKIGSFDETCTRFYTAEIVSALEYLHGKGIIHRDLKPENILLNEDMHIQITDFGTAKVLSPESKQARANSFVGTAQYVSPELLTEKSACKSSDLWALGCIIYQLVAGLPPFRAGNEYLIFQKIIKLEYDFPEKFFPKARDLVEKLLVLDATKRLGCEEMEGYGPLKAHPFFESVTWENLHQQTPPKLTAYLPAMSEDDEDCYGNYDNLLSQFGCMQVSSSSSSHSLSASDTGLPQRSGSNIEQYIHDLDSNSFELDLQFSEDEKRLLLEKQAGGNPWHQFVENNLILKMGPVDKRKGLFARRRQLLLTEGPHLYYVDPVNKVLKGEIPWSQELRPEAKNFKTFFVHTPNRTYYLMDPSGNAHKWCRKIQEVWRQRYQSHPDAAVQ
Assay: PDK1 kinase assay
Conditions: in vitro kinase assay, His6-PDK1 (aa 52-556), PDKtide, P33-ATP
pIC50: −log10 of the molar value.
Please map values of pIC50 to classes as shown: A = under 7, B = from 7 up to 8, C = 8 and over

Q: Form field 'band' for O=C(NCC#Cc1ccc2nccc(OCC3CCOCC3)c2c1)c1cncn(Cc2ccc(F)c(F)c2)c1=O [I-125.6]
Ans: B

Q: What do you have for CC(C)NC(=O)c1cnc2ccc(C#CCNC(=O)c3cncn(Cc4ccc(F)c(F)c4)c3=O)cc2c1 [II-77] ?
Ans: B

Q: Same thing, different molecule: O=C(NCC#Cc1ccc2nccc(NC3CC3)c2c1)c1cccn(Cc2ccc(F)c(F)c2)c1=O [I-116]
Ans: A

Q: Queued: N#Cc1cnc2ccc(C#CCNC(=O)c3cccn(Cc4ccc(F)c(F)c4)c3=O)cc2c1NCc1ccccc1 [II-102]
Ans: A

Q: Also CN(C)CCCNc1ccnc2ccc(C#CCNC(=O)c3cccn(Cc4ccc(F)c(F)c4)c3=O)cc12 [I-120] ?
Ans: A

Q: Entry to check: COCCN1CCN(C(=O)c2cnc3ccc(C#CCNC(=O)c4cncn(Cc5ccc(F)c(F)c5)c4=O)cc3c2)CC1 [II-85]
Ans: A

Q: Then what about the molecule CN1CCC(N(C)c2cnc3ccc(C#CCNC(=O)c4cncn(Cc5ccc(F)c(F)c5)c4=O)cc3n2)CC1 [I-28] ?
Ans: B

Q: Please answer likewise for O=C(NCC#Cc1ccc2ncnc(NCC(O)CO)c2c1)c1cccn(Cc2ccc(F)c(F)c2)c1=O (stereo not shown) [II-37]
Ans: B

Q: Then CCN1CCC(Nc2cnc3ccc(C#CCNC(=O)c4cccn(Cc5ccc(F)c(F)c5)c4=O)cc3c2)CC1 [I-72] ?
Ans: C

Q: For CC(c1ccc(F)c(F)c1)n1cccc(C(=O)NCC#Cc2ccc3nccc(OCCCN(C)C)c3c2)c1=O (stereo not shown) [I-124] then?
Ans: C

Sourced from patent US8575203B2
